testedSystem: T1, monkey PRLR on HEK293/mfPRLR cells (Macaca fascicularis, UniProt A0A2K5WXK1)
T1 construct: HA; expressed in transfected cells; host or cells: HEK293
T1 sequence (A0A2K5WXK1 25-619): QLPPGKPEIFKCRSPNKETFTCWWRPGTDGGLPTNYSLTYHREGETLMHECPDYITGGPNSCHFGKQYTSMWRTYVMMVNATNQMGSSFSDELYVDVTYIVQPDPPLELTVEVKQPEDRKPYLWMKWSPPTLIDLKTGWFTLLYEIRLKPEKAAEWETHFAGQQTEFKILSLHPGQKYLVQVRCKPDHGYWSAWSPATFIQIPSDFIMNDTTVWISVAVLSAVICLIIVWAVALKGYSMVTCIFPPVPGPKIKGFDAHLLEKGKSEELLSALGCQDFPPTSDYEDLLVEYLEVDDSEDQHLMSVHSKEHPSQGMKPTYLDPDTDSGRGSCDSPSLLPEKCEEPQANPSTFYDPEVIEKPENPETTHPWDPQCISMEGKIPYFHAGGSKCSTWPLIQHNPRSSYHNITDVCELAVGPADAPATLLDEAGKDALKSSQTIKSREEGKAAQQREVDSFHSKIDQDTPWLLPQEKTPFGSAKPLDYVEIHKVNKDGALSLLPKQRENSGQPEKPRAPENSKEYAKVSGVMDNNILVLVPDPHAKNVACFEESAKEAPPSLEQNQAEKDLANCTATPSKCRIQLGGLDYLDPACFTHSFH
procedureSummary: FACS cell surface binding
The molecules listed here are annotated with their FACS Cell Binding.
observedProperty: FACS Cell Binding

- H1H6804P: fully human anti-PRLR antibody, human IgG1 Fc; HCVR/LCVR SEQ ID NOs 242/250 (antibody, V domains shown) VH: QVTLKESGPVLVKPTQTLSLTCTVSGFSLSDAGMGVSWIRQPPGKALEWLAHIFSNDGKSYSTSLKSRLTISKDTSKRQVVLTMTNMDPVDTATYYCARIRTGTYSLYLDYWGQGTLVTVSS VL: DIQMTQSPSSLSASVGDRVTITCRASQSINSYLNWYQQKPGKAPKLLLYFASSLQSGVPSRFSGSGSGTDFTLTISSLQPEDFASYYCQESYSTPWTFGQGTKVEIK: 29 Fold Above Background
- H1H6785P: fully human anti-PRLR antibody, human IgG1 Fc; HCVR/LCVR SEQ ID NOs 98/106 (antibody, V domains shown) VH: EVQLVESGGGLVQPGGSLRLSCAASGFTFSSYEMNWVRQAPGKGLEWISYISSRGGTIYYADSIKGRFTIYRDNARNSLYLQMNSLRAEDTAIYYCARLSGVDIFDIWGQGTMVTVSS VL: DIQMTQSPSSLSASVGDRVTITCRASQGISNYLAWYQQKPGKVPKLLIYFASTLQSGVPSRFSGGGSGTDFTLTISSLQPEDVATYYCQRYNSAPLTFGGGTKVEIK: 26 Fold Above Background
